Item-by-item account of IC50
# tested_system: UniProtKB P18031
# Sequence (P18031 whole entry, species assumed): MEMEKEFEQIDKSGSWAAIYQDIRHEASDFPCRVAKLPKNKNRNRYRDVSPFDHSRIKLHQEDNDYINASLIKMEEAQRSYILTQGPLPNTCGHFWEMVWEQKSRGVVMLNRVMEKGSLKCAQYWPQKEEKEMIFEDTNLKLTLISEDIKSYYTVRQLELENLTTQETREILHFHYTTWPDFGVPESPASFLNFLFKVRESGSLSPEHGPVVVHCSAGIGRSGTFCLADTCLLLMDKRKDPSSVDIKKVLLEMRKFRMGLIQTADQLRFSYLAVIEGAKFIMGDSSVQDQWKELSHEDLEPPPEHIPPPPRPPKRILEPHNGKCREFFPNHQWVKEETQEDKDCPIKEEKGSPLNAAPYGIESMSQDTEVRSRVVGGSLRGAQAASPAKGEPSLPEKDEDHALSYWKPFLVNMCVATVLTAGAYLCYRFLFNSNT

{"molecule": "O=C(Nc1ccc(-c2oc3cc(F)c(-c4nnn[nH]4)cc3c2C2CCC2)cc1)C(=O)Nc1ccc(N2CCC3(CCOC3)CC2)cc1 [Example 125]", "IC50 / nM": 6280}
{"molecule": "Cn1cc(-c2ccc(NC(=O)C(=O)Nc3ccc(-c4cc5cc(F)c(-c6noc(=O)[nH]6)cc5n4C4CCC4)cc3)cc2)cn1 [Example 123]", "IC50 / nM": 1200}
{"molecule": "O=C(Nc1ccc(-c2cc3cc(F)c(-c4nnn[nH]4)cc3n2C2CCC2)cc1)C(=O)Nc1ccc(N2CCC3(CCOC3)CC2)cc1 [Example 67]", "IC50 / nM": 390}

* * *

Item-by-item account of IC50
# System: KYSE520
# test_description: CellTiter-Glo cell proliferation inhibition, KYSE520
# Type: cell-based, human
# settings: Homo sapiens, KYSE-520; KYSE520 cells, 120 hours, CellTiter-Glo
measure_name: IC50 (µM)

{"compound": "O=C(Nc1ccc(-c2cc3cc(F)c(-c4nnn[nH]4)cc3n2C2CCC2)cc1)C(=O)Nc1ccc(N2CCC3(CCC(CO)C3)CC2)cc1 (centres unmarked) [Example 106]", "recorded_number": 0.11}
{"compound": "O=C(Nc1ccc(-c2ccsc2)cc1)C(=O)Nc1ccc(-c2cc3cc(F)c(-c4nnn[nH]4)nc3n2C2CCC2)cc1 [Example 132]", "recorded_number": 1.1}
{"compound": "O=C(Nc1ccc(-c2cc3cc(F)c(-c4nnn[nH]4)cc3n2C2CCC2)cc1)C(=O)Nc1ccc(N2CCC3(CCCOC3)CC2)cc1 [Example 74]", "recorded_number": 0.116}
{"compound": "O=C(Nc1ccc(-c2ccsc2)cc1)C(=O)Nc1ccc(-c2cc3ccc(-c4nnn[nH]4)nc3n2C2CCC2)cc1 [Example 129]", "recorded_number": 2.85}
{"compound": "O=C(Nc1ccc(-c2cc3cc(F)c(-c4nnn[nH]4)cc3n2C2CCC2)cc1)C(=O)Nc1ccc(N2CCC(F)(CO)C2)cc1 (centres unmarked) [Example 17]", "recorded_number": 0.185}
{"compound": "O=C(Nc1ccc(-c2cc3cc(F)c(-c4nnn[nH]4)cc3n2C2CCC2)cc1)C(=O)Nc1ccc(N2CC3CC(O)CC3C2)cc1 (centres unmarked) [Example 116]", "recorded_number": 0.092}
{"compound": "CC1(O)CCC2(CCN(c3ccc(NC(=O)C(=O)Nc4ccc(-c5cc6cc(F)c(-c7nnn[nH]7)cc6n5C5CCC5)cc4)cc3)CC2)CC1 [Example 110]", "recorded_number": 0.109}
{"compound": "CC(C)(O)C1CC2(CCN(c3ccc(NC(=O)C(=O)Nc4ccc(-c5cc6cc(F)c(-c7nnn[nH]7)cc6n5C5(C)CCC5)cc4)cc3)CC2)C1 [Example 99]", "recorded_number": 0.17}
{"compound": "CC1(O)CC2CN(c3ccc(NC(=O)C(=O)Nc4ccc(-c5cc6cc(F)c(-c7nnn[nH]7)cc6n5C5(C)CCC5)cc4)cc3)CC2C1 (centres unmarked) [Example 118]", "recorded_number": 0.116}
{"compound": "O=C(Nc1ccc(-c2cc3cc(F)c(-c4nnn[nH]4)cc3n2C2CCC2)cc1)C(=O)Nc1ccc(N2CCC(CCO)C2)cc1 (centres unmarked) [Example 14]", "recorded_number": 0.113}
{"compound": "CC1(n2c(-c3ccc(NC(=O)C(=O)Nc4ccc(N5CC6CC(CO)CC6C5)cc4)cc3)cc3cc(F)c(-c4nnn[nH]4)cc32)CCC1 (centres unmarked) [Example 120]", "recorded_number": 0.115}
{"compound": "CC1(CO)CCN(c2ccc(NC(=O)C(=O)Nc3ccc(-c4cc5cc(F)c(-c6nnn[nH]6)cc5n4C4CCC4)cc3)cc2)C1 (centres unmarked) [Example 16]", "recorded_number": 0.151}
{"compound": "O=C(Nc1ccc(-c2cc3cc(F)c(-c4nnn[nH]4)cc3n2C2CCC2)cc1)C(=O)Nc1ccc(N2CC3(CCCOC3)C2)cc1 [Example 55]", "recorded_number": 0.108}
{"compound": "O=C(Nc1ccc(-c2cc3cc(F)c(-c4nnn[nH]4)cc3n2C2CCC2)cc1)C(=O)Nc1ccc(N2CC3COCC3C2)cc1 (centres unmarked) [Example 114]", "recorded_number": 0.118}
